Provide the reported melting point of each item.

Prompt line: Bench note: what melting point did O=C(O)c1ccc2[nH]c3c(c2c1)CCc1c[nH]nc1-3 show?
Response line: > 260 °C

Prompt line: Any idea what its melting point is? The compound is CCOC(=O)c1[nH]nc2c1CCc1c-2[nH]c2ccccc12
Response line: 224 to 226 °C

Prompt line: Consider the compound O=[N+]([O-])c1ccc2[nH]c3c(c2c1)CCc1c[nH]nc1-3 and give its measured melting point.
Response line: > 260 °C

Prompt line: Please give the measured melting point for this compound: O=C(O)c1ccc2c3c([nH]c2c1)-c1n[nH]cc1CC3
Response line: > 260 °C

Prompt line: Endpoint output: melting point of COC(=O)c1ccc2c3c([nH]c2c1)-c1[nH]ncc1CC3 . Value?
Response line: 240 to 243 °C

Prompt line: // query melting point value for entry CCOC(=O)c1ccc2[nH]c3c(c2c1)CCc1cn[nH]c1-3
Response line: 214 to 216 °C

Prompt line: Quick check: melting point of O=C(Nc1ccc2[nH]c3c(c2c1)CCc1cn[nH]c1-3)c1cccs1 ?
Response line: 176 to 180 °C

Prompt line: Item under review: Cl.O=C(O)c1n[nH]c2c1CCc1c-2[nH]c2ccccc12 . Reported melting point?
Response line: > 260 °C

Prompt line: Fill in the blank: the reported melting point of CC(C)CNC(=O)c1ccc2[nH]c3c(c2c1)CCc1cn[nH]c1-3 is ____.
Response line: 186 to 190 °C

Prompt line: Which melting point is listed for CN1CCN(C(=O)c2ccc3[nH]c4c(c3c2)CCc2cn[nH]c2-4)CC1 ?
Response line: 198 to 205 °C

Prompt line: Reported melting point, compound O=C(O)c1cccc2[nH]c3c(c12)CCc1c[nH]nc1-3 : ____
Response line: > 260 °C

Prompt line: # lookup: melting point of CC(C)CC(=O)Nc1ccc2[nH]c3c(c2c1)CCc1cn[nH]c1-3
Response line: 182 to 185 °C

Prompt line: I am curious: what melting point value has been reported for Cl.Nc1ccc2[nH]c3c(c2c1)CCc1cn[nH]c1-3 ?
Response line: 237 to 241 °C
